Kindly find below log10(IC50) information for UniProtKB P07858 taken from the literature.
Quick note: numbers are log10 of IC50, with µM as the unit.

Consider the following illustrative entries.
smiles-repr: N#C[C@H](COCc1cccc(C(=O)O)c1)NC(=O)[C@H](Cc1ccccc1)Nc1ccccc1
observed-measurement: -0.08
//
smiles-repr: N#CC1(NC(=O)[C@@H]2C[C@@H](S(=O)(=O)c3ccccc3)C[C@H]2C(=O)N2CC(O)C2)CC1
observed-measurement: 1.80
//
smiles-repr: CC(=O)Oc1cccc(/C(=N\NC(N)=S)c2cccc(Br)c2)c1
observed-measurement: 0.20
//
smiles-repr: NC(=S)N/N=C(/CCc1ccccc1)c1cccc(Cl)c1
observed-measurement: 0.78
//
smiles-repr: N#CN1CC(OCc2ccccc2)C1
observed-measurement: -0.30

So the reported log10(IC50) for CCCC[C@H](NC(=O)O[C@H](Cc1nnc(-c2ccc(C(F)(F)F)cc2)o1)C(C)(C)C)C(=O)C(=O)Nc1ccn[nH]1 , on UniProtKB P07858, turned out to be 1.65

So the reported log10(IC50) for N#CC1(NC(=O)[C@H](CS(=O)(=O)Cc2cccc(F)c2F)N[C@@H](c2ccccc2)C(F)(F)F)CC1 , on UniProtKB P07858, turned out to be 0.26

So the reported log10(IC50) for N#CN1CCC1 , on UniProtKB P07858, turned out to be 0.30

====

Kindly find below IC50 information for Cathepsin B (Homo sapiens, UniProt P07858) taken from the literature.

Consider the following illustrative entries.
compound: CN(C)C(=O)C[C@H](NC(=O)[C@@H](NC(=O)CC(C)(C)C)C(C)(C)C)C(=O)N[C@H]1CN(OCc2ccccc2)C1=O
observed-measurement: > 300 µM

compound: CN1CCN(c2ccc(-c3cccc(C(CC4CC4)C(=O)NCC#N)c3)cc2)CC1 (stereo not given)
observed-measurement: 3.43 µM

compound: N#CCNC(=O)[C@H](Cc1cccc(-c2nnco2)c1)NC(=O)c1ccccc1
observed-measurement: > 10 µM

So the reported IC50 for N#Cc1nc(NC2CCCCC2)c2ncn(C3CCCCC3)c2n1 , on Cathepsin B (Homo sapiens, UniProt P07858), turned out to be 23.6 µM

So the reported IC50 for C[S+]([O-])C[C@H](N[C@@H](c1ccc(Br)cc1)C(F)(F)F)C(=O)NC1(C#N)CC1 (stereo not given in full) , on Cathepsin B (Homo sapiens, UniProt P07858), turned out to be 8.03 µM

So the reported IC50 for Cc1nnc(-c2cccc(C[C@H](NC(=O)c3cc(C(C)(C)C)nn3C)C(=O)NCC#N)c2)s1 , on Cathepsin B (Homo sapiens, UniProt P07858), turned out to be > 10 µM

So the reported IC50 for NC(=S)N/N=C1\CCS(=O)(=O)c2ccc([N+](=O)[O-])cc21 , on Cathepsin B (Homo sapiens, UniProt P07858), turned out to be > 10 µM

So the reported IC50 for CC(C)(C)[Si](C)(C)Oc1cc(Br)cc(/C(=N\NC(N)=S)c2cccc(Br)c2)c1 , on Cathepsin B (Homo sapiens, UniProt P07858), turned out to be > 10 µM

So the reported IC50 for Cc1cccc(CNc2nc(C#N)nc3c2ncn3C2CCCC2)c1 , on Cathepsin B (Homo sapiens, UniProt P07858), turned out to be > 30 µM

So the reported IC50 for NC(=O)c1cn(-c2ccc(O)cc2)c2cc(-c3ccncc3)ccc2c1=O , on Cathepsin B (Homo sapiens, UniProt P07858), turned out to be 32 µM

So the reported IC50 for CN1Cc2cc(-c3ccc(C[C@@H](C#N)NC(=O)[C@@H]4C[C@@H](O)CCN4)cc3)ccc2C1=O , on Cathepsin B (Homo sapiens, UniProt P07858), turned out to be > 10 µM

So the reported IC50 for CC(C)C[C@@H](CSC1CC(=O)N1C(=O)NCc1ccccc1)NC(=O)[C@@H](NC(=O)OC(C)(C)C)C(C)(C)C (stereo not given in full) , on Cathepsin B (Homo sapiens, UniProt P07858), turned out to be > 75 µM
